Target: Phosphatidylinositol 4,5-bisphosphate 3-kinase catalytic subunit delta isoform (Homo sapiens, UniProt O00329)
Sequence (O00329 whole entry, canonical isoform): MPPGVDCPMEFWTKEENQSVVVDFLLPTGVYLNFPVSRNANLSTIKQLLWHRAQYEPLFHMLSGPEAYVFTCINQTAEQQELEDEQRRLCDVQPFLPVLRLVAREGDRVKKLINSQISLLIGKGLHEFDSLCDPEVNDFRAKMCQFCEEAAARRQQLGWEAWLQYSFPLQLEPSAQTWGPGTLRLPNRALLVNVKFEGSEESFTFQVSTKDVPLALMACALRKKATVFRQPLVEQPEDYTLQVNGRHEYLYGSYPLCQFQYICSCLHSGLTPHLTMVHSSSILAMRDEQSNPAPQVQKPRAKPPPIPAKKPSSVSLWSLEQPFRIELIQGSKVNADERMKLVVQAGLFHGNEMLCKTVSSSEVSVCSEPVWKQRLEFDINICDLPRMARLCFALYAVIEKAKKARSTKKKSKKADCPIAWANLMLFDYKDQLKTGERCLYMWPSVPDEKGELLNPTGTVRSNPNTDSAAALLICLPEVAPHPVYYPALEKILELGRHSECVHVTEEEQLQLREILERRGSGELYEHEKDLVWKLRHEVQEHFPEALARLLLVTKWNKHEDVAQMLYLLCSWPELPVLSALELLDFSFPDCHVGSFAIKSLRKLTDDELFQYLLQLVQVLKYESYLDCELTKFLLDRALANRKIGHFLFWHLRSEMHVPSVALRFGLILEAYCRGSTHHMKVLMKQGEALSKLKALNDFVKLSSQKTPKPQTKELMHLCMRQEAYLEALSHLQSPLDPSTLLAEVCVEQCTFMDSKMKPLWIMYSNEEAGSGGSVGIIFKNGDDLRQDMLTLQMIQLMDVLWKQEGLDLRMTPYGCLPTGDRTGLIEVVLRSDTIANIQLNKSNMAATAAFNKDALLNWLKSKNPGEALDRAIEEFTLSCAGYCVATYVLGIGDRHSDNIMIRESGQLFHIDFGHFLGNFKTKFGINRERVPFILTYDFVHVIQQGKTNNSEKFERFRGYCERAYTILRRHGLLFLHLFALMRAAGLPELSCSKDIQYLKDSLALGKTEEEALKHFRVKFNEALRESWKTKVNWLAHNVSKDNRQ
Assay: Inhibition of recombinant PI3Kdelta (unknown origin) using PIP2:3PS as substrate preincubated for 20 mins followed by ATP addition and measured after 1 hrs by ADP-Glo reagent based assay
Property: IC50 (nM)

The following compounds have reported results that may help.
{"Structure As Smiles": "COc1ncc(-c2ccc3ncnc(N[C@H]4CCN(C(=O)C5CCOCC5)C4)c3c2)cc1C(=O)Oc1c(F)cc(F)cc1F", "Units Text": "nM", "Assay Result": 1.08}
{"Structure As Smiles": "COc1ncc(-c2ccc3ncnc(N[C@H]4CCN(C(=O)C5CCOCC5)C4)c3n2)cc1C(=O)Oc1ccc(F)cc1", "Units Text": "nM", "Assay Result": 4.45}
{"Structure As Smiles": "COc1ncc(-c2ccc3ncnc(N[C@H]4CCN(C(=O)C5CCOCC5)C4)c3n2)cc1CCl", "Units Text": "nM", "Assay Result": 10.4}
{"Structure As Smiles": "COc1ncc(-c2ccc3ncnc(N[C@H]4CCN(C(=O)C5CCOCC5)C4)c3n2)cc1C(=O)Oc1ccc([N+](=O)[O-])cc1", "Units Text": "nM", "Assay Result": 2.31}
{"Structure As Smiles": "COc1ncc(-c2ccc3ncnc(N[C@H]4CCN(C(=O)C5CCOCC5)C4)c3c2)cc1CCl", "Units Text": "nM", "Assay Result": 24.2}

P = COc1ncc(-c2ccc3ncnc(N[C@H]4CCN(C(=O)C5CCOCC5)C4)c3c2)cc1C(=O)Oc1ccc(F)cc1
Q = C=CC(=O)Nc1cc(-c2ccc3ncnc(N[C@H]4CCN(C(=O)C5CCOCC5)C4)c3n2)cnc1OC
Between these two entries, P and Q , state which has the higher IC50. // output: label of the selected item Q
(Q: 47.8 nM, P: 2.24 nM)
